Data origin, for the record: the supplement of paper PMC10724198

System: Saccharomyces cerevisiae
run description: protein stability index of tFT-peptide fusion (C-terminal peptide) (PSI (0-1 scale)); higher = more stable (slower turnover)
run conditions: genetic background: das1 deletion; temperature: 30 C
observation type: protein stability index
Just the number, please, no unit after it.

Sample records with protein stability index:
* KKVLLQAKQYSK [UBC9 C-terminal 12 aa] | 0.678
* DGKSVNKYGAKK [GUS1 C-terminal 12 aa] | 0.68
* CLQTESETDIET [LIF1 C-terminal 12 aa] | 0.661
* NQIIQARLKDLE [DNF3 C-terminal 12 aa] | 0.686
* ELTKQHGNKDSN [RTK1 C-terminal 12 aa] | 0.7
* AKKKKKRIRGFG [RRN6 C-terminal 12 aa] | 0.686

// recorded protein stability index for QRELKKVDGTPI [RCI50 C-terminal 12 aa] : 0.685

// recorded protein stability index for RTDPDRYSRLSV [ILT1 C-terminal 12 aa] : 0.703
